GI50 for assorted molecules
- Test system: OVCAR-8
- protocol: NCI tumour cell line growth inhibition, 48 h
Active and inactive are the calls of the source. Cut-off read from the data, not from the text of the source: active = GI50 up to about 1.1 µM and inactive = higher.
parameter_measured: GI50

> print(dat)
                                    molecule  target.or.test.system               result
 1      Cc1nc2c(cc1C(=O)NN)c(=O)n(C)c(=O)n2C                OVCAR-8  > 100 µM (inactive)
 2  CC(=O)OCCCOCn1c(Cc2ccccc2)c(C)c(=O)[nH]c1=O                OVCAR-8  > 100 µM (inactive)
 3  C=C(Br)C(C)(Cl)CCC(Br)C(C)(C)Br (stereo unspecified)                OVCAR-8  > 100 µM (inactive)
 4  COc1cc(C2S/C(=C/c3ccccc3)C(=O)N2c2ccc([N+](=O)[O-])cc2)cc(OC)c1OC (stereo unspecified)                OVCAR-8  > 100 µM (inactive)
 5                   c1ccc(-c2nc3sccn3n2)cc1                OVCAR-8  > 100 µM (inactive)
 6                 CCC(CON(C)c1ccccc1)(SC)SC                OVCAR-8  > 100 µM (inactive)
 7  CN(C)CC1CCC/C(=C\c2ccc(Cl)cc2)C1=O (stereo unspecified)                OVCAR-8   3.85 µM (inactive)
 8  COC(=O)C(=O)C(C(=O)C=C(C)C)C(=O)C(=O)Nc1ccc(Cl)cc1C (stereo unspecified)                OVCAR-8  > 100 µM (inactive)
 9  OC(c1cccnc1Cl)c1nc2ccccc2c2ccnc(Cl)c12 (stereo unspecified)                OVCAR-8   9.12 µM (inactive)
10  CCN1C[C@]2(C)CC[C@H](O)C34C1C(C[C@@H]32)[C@@]1(O)CC[C@H]2C[C@@H]4[C@@H]1[C@H]2O                OVCAR-8  > 100 µM (inactive)
11  OC1(c2ccc(Cl)cc2)c2ccccc2C2=NCc3ccccc3CN21 (stereo unspecified)                OVCAR-8   9.55 µM (inactive)

###

- Test system: 786-0
- protocol: NCI tumour cell line growth inhibition, 48 h
Calls of active or inactive are those of the source. Rule as the data show it: active = GI50 up to about 1.1 µM and inactive = higher.
Classes used: 1.0 (active), 0.0 (inactive)

> print(dat)
                                    molecule  cat
 1  Cc1ccc(NC(=O)c2cc3cc(/N=N/c4ccccc4C(=O)O)ccc3oc2=O)cc1  0.0
 2           NC(=O)NC(=O)c1cccc(NC(=O)CBr)c1  1.0
 3  ClC(Cl)(Cl)C1=N[C@H]2[C@H](Br)[C@@H]3O[C@@H](c4ccccc4)[C@H](c4ccccc4)O[C@@H]3[C@H]2O1  0.0
 4     Oc1c2c(nc3cc4c(cc13)OCO4)-c1ccccc1CC2  0.0
 5      O=C(Nc1c(O)[nH]c(=S)[nH]c1=O)c1ccco1  0.0
 6  Fc1ccccc1C1CC(c2ccc3ccccc3c2)=Nc2ccccc2S1 (stereo not drawn)  0.0
 7  CCOC(=O)C1=CNC(C(=O)OCC)C1c1cccn1-c1ccc(Cl)cc1[N+](=O)[O-] (stereo not drawn)  0.0
 8                O=C(NNC(=O)c1ccco1)c1ccco1  0.0
 9  NCC(Cc1ccccc1)P(=O)(O)O (stereo not drawn)  0.0
10  Nc1ncnc2c1ncc(=O)n2C1CC(O)C(CO)O1 (stereo not drawn)  0.0
11  COC1=C(C)C(=O)c2c(cc3c(c2O)C(C)(CCC=C(C)C)C(C)O3)C1=O (stereo not drawn)  0.0
12  CC(C)(C)OC(=O)NC(Cc1ccc(OCc2ccccc2)cn1)C(=O)N1CCCC1 (stereo not drawn)  0.0
13                  O/N=C1/CCC/C1=C\c1ccccc1  0.0
14  CC1=NN(c2ccccc2Cl)C2(C1)SCC(=O)N2c1nc2ccccc2s1 (stereo not drawn)  0.0
15                  c1cc2c(cc1NC1=NCCO1)OCO2  0.0
16                           Nc1cccc2nnccc12  0.0
17  COC1=C(C)C(=O)c2c(c(COC(N)=O)c3n2CC2C3N2C)C1=O (stereo not drawn)  1.0
18         N#Cc1c(-c2ccccc2)[nH]c2ccccc2c1=O  0.0
19  O=C1COc2cc(N3CCN(c4cccc(C(F)(F)F)c4)CC3)ccc2N1  0.0
20  COc1cc2c(cc1OC)C(Cc1cc(Br)c(OC)c(OC)c1)=[N+](C)CC2  0.0
21  Cc1c(C#N)c2nnn(-c3cccc(Cl)c3)c(=O)n2c1-c1ccccc1  0.0
22        COC(=O)/C=C1/OC(c2ccccc2)=C(C)C1=O  0.0
23  CC1=NN(c2nc(N)nc(/C(C#N)=C\c3ccc([N+](=O)[O-])s3)n2)C(C)(C)C1  1.0
